target: Syk tandem SH2 (tSH2) domain; assay: intrinsic Trp fluorescence; 0 mM KCl, 150 mM NaCl
Non-standard residues stand in square brackets, D forms with d. No end group written: not given here. pY = N[C@@H](Cc1ccc(OP(=O)(O)O)cc1)C(=O)O
REPORTED_METRIC: Kd

1. NQL[pY]NELNLGRREE[pY]DVLD [ITAM-ζ1-Y2P peptide (doubly phosphorylated first ITAM of the CD3-ζ chain)] = 0.0975 µM
